Taken from patent US20230167505A1.

Assay: Pharmacokinetics: onvansertib plasma concentrations by LC/MS-MS
Type: in vivo, human
Details: human, plasma, oral, Cycle 1 day 5, mean ± SD; 27 mg/m^2 + Decitabine; 3 patients
Method: Pharmacokinetics: Blood samples were collected from patients for pharmacokinetic analysis on days 1 and 5 at predose; at 0.5, 1, 2, 3, 4, 8, and 24 hours after administration of onvansertib; and once on days 8, 15, and 22. Onvansertib plasma concentrations were determined by LC/MS-MS at PRA Bioanalytical Laboratory. […]
Value type: Tmax (h)
One number for each entry, in h.

Recorded Tmax (molecule CN1CCN(c2ccc(OC(F)(F)F)c(Nc3ncc4c(n3)-c3c(c(C(N)=O)nn3CCO)CC4)c2)CC1 ): 2

* * *

Test: Pharmacokinetics: onvansertib plasma concentrations by LC/MS-MS
Type: in vivo, human
Conditions: human, plasma, oral, 60 mg/m^2, Cycle 1 day 5, mean ± SD; 60 mg/m^2 + LDAC; 5 patients; read-out: t1/2 (converted)
Protocol: Pharmacokinetics: Blood samples were collected from patients for pharmacokinetic analysis on days 1 and 5 at predose; at 0.5, 1, 2, 3, 4, 8, and 24 hours after administration of onvansertib; and once on days 8, 15, and 22. Onvansertib plasma concentrations were determined by LC/MS-MS at PRA Bioanalytical Laboratory. […]
Value type: half-life (min)
One number for each entry, in min.

Recorded half-life (compound CN1CCN(c2ccc(OC(F)(F)F)c(Nc3ncc4c(n3)-c3c(c(C(N)=O)nn3CCO)CC4)c2)CC1 ): 2220

* * *

experiment: Pharmacokinetics: onvansertib plasma concentrations by LC/MS-MS; type: in vivo, human; conditions: human, plasma, oral, 12 mg/m^2, Cycle 1 day 5, mean ± SD; 12 mg/m^2 + Decitabine; 4 patients
Value type: Cmax (nM)
Numbers only, in nM.

Recorded Cmax (compound CN1CCN(c2ccc(OC(F)(F)F)c(Nc3ncc4c(n3)-c3c(c(C(N)=O)nn3CCO)CC4)c2)CC1 [onvansertib] ): 163

* * *

test: Pharmacokinetics: onvansertib plasma concentrations by LC/MS-MS; assay type: in vivo, human; conditions: human, plasma, oral, 90 mg/m^2, Cycle 1 day 5, mean ± SD; 90 mg/m^2 + Decitabine; 6 patients; read-out: AUC(0-24)
Value type: AUC(0-t) (µM·h)
Give bare numbers, in µM·h.

Recorded AUC(0-t) (compound CN1CCN(c2ccc(OC(F)(F)F)c(Nc3ncc4c(n3)-c3c(c(C(N)=O)nn3CCO)CC4)c2)CC1 ): 21.8

* * *

test: Pharmacokinetics: onvansertib plasma concentrations by LC/MS-MS; assay type: in vivo, human; details: human, plasma, oral, 60 mg/m^2, Cycle 1 day 5, mean ± SD; 60 mg/m^2 + LDAC; 5 patients
Value type: Tmax (h)
Numbers only, in h.

Recorded Tmax (compound CN1CCN(c2ccc(OC(F)(F)F)c(Nc3ncc4c(n3)-c3c(c(C(N)=O)nn3CCO)CC4)c2)CC1 ): 2.4

* * *

Test: Pharmacokinetics: onvansertib plasma concentrations by LC/MS-MS
Format: in vivo, human
Settings: human, plasma, oral, 40 mg/m^2, Cycle 1 day 5, mean ± SD; 40 mg/m^2 + Decitabine; 4 patients; read-out: t1/2 (converted)
Protocol: Pharmacokinetics: Blood samples were collected from patients for pharmacokinetic analysis on days 1 and 5 at predose; at 0.5, 1, 2, 3, 4, 8, and 24 hours after administration of onvansertib; and once on days 8, 15, and 22. Onvansertib plasma concentrations were determined by LC/MS-MS at PRA Bioanalytical Laboratory. […]
Value type: half-life (h)
Answers are plain numbers, in h.

Recorded half-life (molecule CN1CCN(c2ccc(OC(F)(F)F)c(Nc3ncc4c(n3)-c3c(c(C(N)=O)nn3CCO)CC4)c2)CC1 [onvansertib] ): 25

* * *

test: Pharmacokinetics: onvansertib plasma concentrations by LC/MS-MS; assay type: in vivo, human; details: human, plasma, oral, Cycle 1 day 5, mean ± SD; 40 mg/m^2 + Decitabine; 4 patients
Value type: Tmax (h)
Numbers only, in h.

Recorded Tmax (compound CN1CCN(c2ccc(OC(F)(F)F)c(Nc3ncc4c(n3)-c3c(c(C(N)=O)nn3CCO)CC4)c2)CC1 [onvansertib] ): 3.3

* * *

assay: Pharmacokinetics: onvansertib plasma concentrations by LC/MS-MS; assay type: in vivo, human; conditions: human, plasma, oral, 18 mg/m^2, Cycle 1 day 5, mean ± SD; 18 mg/m^2 + LDAC; 3 patients; read-out: AUC(0-24)
Value type: AUC(0-t) (µM·h)
Answers are plain numbers, in µM·h.

Recorded AUC(0-t) (compound CN1CCN(c2ccc(OC(F)(F)F)c(Nc3ncc4c(n3)-c3c(c(C(N)=O)nn3CCO)CC4)c2)CC1 [onvansertib] ): 1.73

* * *

assay: Pharmacokinetics: onvansertib plasma concentrations by LC/MS-MS; type: in vivo, human; conditions: human, plasma, oral, 60 mg/m^2, Cycle 1 day 5, mean ± SD; 60 mg/m^2 + LDAC; 5 patients; read-out: AUC(0-24)
Value type: AUC(0-t) (µM·h)
One number for each entry, in µM·h.

Recorded AUC(0-t) (compound CN1CCN(c2ccc(OC(F)(F)F)c(Nc3ncc4c(n3)-c3c(c(C(N)=O)nn3CCO)CC4)c2)CC1 ): 12.7

* * *

assay: Pharmacokinetics: onvansertib plasma concentrations by LC/MS-MS; type: in vivo, human; conditions: human, plasma, oral, Cycle 1 day 5, mean ± SD; 40 mg/m^2 + Decitabine; 4 patients; read-out: AUC(0-24)
Value type: AUC(0-t) (µM·h)
Give bare numbers, in µM·h.

Recorded AUC(0-t) (compound CN1CCN(c2ccc(OC(F)(F)F)c(Nc3ncc4c(n3)-c3c(c(C(N)=O)nn3CCO)CC4)c2)CC1 ): 8.05

* * *

assay: Pharmacokinetics: onvansertib plasma concentrations by LC/MS-MS; format: in vivo, human; details: human, plasma, oral, 12 mg/m^2, Cycle 1 day 5, mean ± SD; 12 mg/m^2 + LDAC; 3 patients
Value type: Tmax (h)
Answers are plain numbers, in h.

Recorded Tmax (compound CN1CCN(c2ccc(OC(F)(F)F)c(Nc3ncc4c(n3)-c3c(c(C(N)=O)nn3CCO)CC4)c2)CC1 ): 2

* * *

Assay: Pharmacokinetics: onvansertib plasma concentrations by LC/MS-MS
Type: in vivo, human
Conditions: human, plasma, oral, 40 mg/m^2, Cycle 1 day 5, mean ± SD; 40 mg/m^2 + LDAC; 3 patients; read-out: t1/2 (converted)
Method: Pharmacokinetics: Blood samples were collected from patients for pharmacokinetic analysis on days 1 and 5 at predose; at 0.5, 1, 2, 3, 4, 8, and 24 hours after administration of onvansertib; and once on days 8, 15, and 22. Onvansertib plasma concentrations were determined by LC/MS-MS at PRA Bioanalytical Laboratory. […]
Value type: half-life (min)
One number for each entry, in min.

Recorded half-life (compound CN1CCN(c2ccc(OC(F)(F)F)c(Nc3ncc4c(n3)-c3c(c(C(N)=O)nn3CCO)CC4)c2)CC1 ): 960

* * *

experiment: Pharmacokinetics: onvansertib plasma concentrations by LC/MS-MS; type: in vivo, human; settings: human, plasma, oral, 40 mg/m^2, Cycle 1 day 5, mean ± SD; 40 mg/m^2 + LDAC; 3 patients
Value type: Tmax

Recorded Tmax (molecule CN1CCN(c2ccc(OC(F)(F)F)c(Nc3ncc4c(n3)-c3c(c(C(N)=O)nn3CCO)CC4)c2)CC1 ): 1.7 h

* * *

test: Pharmacokinetics: onvansertib plasma concentrations by LC/MS-MS; assay type: in vivo, human; settings: human, plasma, oral, 12 mg/m^2, Cycle 1 day 5, mean ± SD; 12 mg/m^2 + Decitabine; 4 patients; read-out: t1/2 (converted)
Value type: half-life
Your answer should be a number followed by the unit of measure.

Recorded half-life (compound CN1CCN(c2ccc(OC(F)(F)F)c(Nc3ncc4c(n3)-c3c(c(C(N)=O)nn3CCO)CC4)c2)CC1 ): 26 h

* * *

Assay: Pharmacokinetics: onvansertib plasma concentrations by LC/MS-MS
Format: in vivo, human
Settings: human, plasma, oral, Cycle 1 day 5, mean ± SD; 27 mg/m^2 + LDAC; 3 patients
Method: Pharmacokinetics: Blood samples were collected from patients for pharmacokinetic analysis on days 1 and 5 at predose; at 0.5, 1, 2, 3, 4, 8, and 24 hours after administration of onvansertib; and once on days 8, 15, and 22. Onvansertib plasma concentrations were determined by LC/MS-MS at PRA Bioanalytical Laboratory. […]
Value type: Tmax (h)
Give bare numbers, in h.

Recorded Tmax (compound CN1CCN(c2ccc(OC(F)(F)F)c(Nc3ncc4c(n3)-c3c(c(C(N)=O)nn3CCO)CC4)c2)CC1 [onvansertib] ): 2.7

* * *

Assay: Pharmacokinetics: onvansertib plasma concentrations by LC/MS-MS
Type: in vivo, human
Conditions: human, plasma, oral, 90 mg/m^2, Cycle 1 day 5, mean ± SD; 90 mg/m^2 + Decitabine; 6 patients; read-out: t1/2 (converted)
Method: Pharmacokinetics: Blood samples were collected from patients for pharmacokinetic analysis on days 1 and 5 at predose; at 0.5, 1, 2, 3, 4, 8, and 24 hours after administration of onvansertib; and once on days 8, 15, and 22. Onvansertib plasma concentrations were determined by LC/MS-MS at PRA Bioanalytical Laboratory. […]
Value type: half-life (h)
One number for each entry, in h.

Recorded half-life (compound CN1CCN(c2ccc(OC(F)(F)F)c(Nc3ncc4c(n3)-c3c(c(C(N)=O)nn3CCO)CC4)c2)CC1 ): 30
